Kindly state pIC50 for each of the entries shown.
# assay remarks: Cytotoxicity against human MDA-MB-435 cells assessed as decrease in cell viability after 72 hrs by MTT assay
# Format: functional, cell-based
# condition info: MDA-MB-435, 72 h
pIC50: −log10 of the molar value.

Example compounds with recorded pIC50:
>  <compound>
CC1(C)CC(n2nnc(-c3ccccc3)c2I)C2=C(O1)C(=O)c1ccccc1C2=O (stereo unspecified)

>  <pIC50>
< 5.01

$$$$
>  <compound>
CC1(C)CC(n2cc(-c3ccccc3)nn2)C2=C(O1)C(=O)c1ccccc1C2=O (stereo unspecified)

>  <pIC50>
< 4.89

$$$$
>  <compound>
O=C1C2=C(OC(Cn3cc(-c4ccccc4)nn3)C2)C(=O)c2ccccc21 (stereo unspecified)

>  <pIC50>
< 4.85

$$$$
>  <compound>
CC1(C)OC2=C(C(=O)C(=O)c3ccccc32)[C@H](n2nnc(-c3ccccc3)c2I)[C@H]1Br

>  <pIC50>
< 5.07

$$$$
>  <compound>
O=C1C2=C(OC(Cn3nnc(-c4ccccc4)c3I)C2)C(=O)c2ccccc21 (stereo unspecified)

>  <pIC50>
< 4.99

$$$$

# context switch: different compound, same pIC50
Documented pIC50 of O=C1C2=C(OC(Cn3nncc3-c3ccccc3)C2)C(=O)c2ccccc21 (stereo unspecified) : < 4.85
